Origin of the recorded values: PubChem BioAssay (NCI)

# Test system: RXF 393 renal
# test: NCI tumour cell line growth inhibition, 48 h
TGI: recorded values

Take a look at these entries with their results.
- O=P(OCc1ccccc1)(OCc1ccccc1)C(O)/C=C/c1ccccc1 (stereo not given): > 100 µM
- C#CCOCC12C=CC(O1)C1COC(=O)C12 (stereo not given): > 100 µM
- COC(=O)c1nc(NN)[nH]c(=O)c1CCCCCc1c(C(=O)OC)[nH]c(NN)cc1=O: > 100 µM
- CC1(C)N=C(N)N=C(N)N1c1cccc(OCc2cccc(N)c2)c1: > 100 µM

Now take the following compound into account.
Using the record for CCOC(=O)C1(C(=O)OCC)CCC(C(OC)OC)C(CC(=O)OC)C1 (stereo not given) , report its TGI.
> 10 µM
